system: BT-549 breast; assay: NCI tumour cell line growth inhibition, 48 h
measurementKind: GI50

Examples with answers:
COc1cc(-n2cc(-c3ccc(Cl)cc3)n(-c3ccccc3)c2=O)cc(OC)c1OC: 17.5 µM
O=C(Nc1ccc(Cl)c(C(F)(F)F)c1)Nc1ccc(-c2cccnc2)cc1N1CCC(CO)CC1: 2.13 µM
O=c1[nH]c(-c2ccc(Cl)c(Cl)c2)cn1-c1ccc(Cl)cc1: 37.7 µM
O=C(COc1ccccc1)NNc1ccccc1: 90.7 µM
CC(C)[C@@]12C[C@@H](OC(=O)C3CO3)[C@@](C)(O1)[C@@H]1CC[C@@H](C)[C@H]1[C@@H]2OC(=O)/C=C/c1ccccc1 (stereo partly specified): 11.3 µM

-- ask Reported GI50 for BT-549 breast, given CCCCN(CCCC)P(=O)(Oc1ccccc1)Oc1ccccc1 ?
-- reply 14.9 µM

-- ask Reported GI50 for BT-549 breast, given CCCN(CCC)c1ccc(/C=N/NC(=O)c2cccnc2)c(C)c1 ?
-- reply 15.2 µM

-- ask Reported GI50 for BT-549 breast, given Cc1ccc(/C(=N/NS(=O)(=O)c2cc(C)c(Cl)cc2Cl)Sc2cc(Cl)c(C)cc2S(N)(=O)=O)cc1 ?
-- reply 83.5 µM

* * *

test system: HOP-92 NSCLC; assay: NCI tumour cell line growth inhibition, 48 h
TGI values by entry

O=S1Nc2cccc(C(F)(F)F)c2S1 (stereo not drawn): 73.2 µM
N#CC(NNC(=O)Cc1ccccc1)c1ccc([N+](=O)[O-])cc1 (stereo not drawn): > 100 µM
OCc1ccc(-c2nc(-c3ccc4c(c3)OCO4)c(-c3ccccn3)[nH]2)cc1: > 25 µM

Please turn your attention to the following entry.
-- ask Quick one: TGI of COc1cc(C2c3cc4c(cc3OC(NNC(N)=S)C2C)OCO4)cc(OC)c1OC (stereo not drawn) ?
-- reply 7.9 µM

* * *

test system: A498 renal; assay: NCI tumour cell line growth inhibition, 48 h
TGI values by entry

Examples with answers:
Cc1c(-c2ccccc2)c(C#N)c2nnn(-c3ccc(Cl)cc3)c(=O)n12: > 100 µM
COC(=O)C1(Cc2ccccc2)Cc2ccccc2C1O (stereo not given): > 100 µM
S=C(NCCc1ccccn1)N/N=C(\c1ccccc1)c1ccccn1: 0.951 µM
CC(=O)Nc1ccc(S(=O)(=O)c2nnc(NC(C)=O)s2)cc1: > 100 µM

-- ask Reported TGI for A498 renal, given CC(=O)NC(CCCNC(=O)N(C)N=O)C(=O)NCc1ccccc1 (stereo not given) ?
-- reply > 100 µM

-- ask Reported TGI for A498 renal, given CCc1cc2c(c(OCC(F)(F)F)c(C(=O)NC3CCN(C(=O)CO)CC3)n2C)c(=O)n1CC(=O)c1ccccc1 ?
-- reply > 100 µM

-- ask Reported TGI for A498 renal, given CC(C)CC(=O)CC(C)[C@]1(CCCOCc2ccccc2)C(=O)N2CCC3(C[C@@]24CCC[C@H]41)OCCO3 (stereo not given in full) ?
-- reply > 10 µM

-- ask Reported TGI for A498 renal, given CCOC(=O)C1CCCc2sc(N)c(C#N)c21 (stereo not given) ?
-- reply > 100 µM

-- ask Reported TGI for A498 renal, given Cc1cc(C)n(-c2nc(-n3nc(C)cc3C)nc(-n3nc(C)cc3C)n2)n1 ?
-- reply > 100 µM

-- ask Reported TGI for A498 renal, given Cc1nc2ccc(Cl)cc2c2c1CCN2c1ccc(F)cc1 ?
-- reply 68.4 µM

* * *

tested on: SK-MEL-28 melanoma; assay: NCI tumour cell line growth inhibition, 48 h
TGI values by entry

CCCCCCCCCCCCCCCCc1c(C(=O)OC)nc(NC#N)[nH]c1=O: > 25 µM

Please turn your attention to the following entry.
-- ask Quick one: TGI of CC(=O)OCC1OC(SC2=N/C(=C\c3ccc(Br)s3)C(=O)N2c2ccccc2)C(OC(C)=O)C(OC(C)=O)C1OC(C)=O (stereo unspecified) ?
-- reply > 100 µM

* * *

tested on: OVCAR-3 ovarian; assay: NCI tumour cell line growth inhibition, 48 h
TGI values by entry

Examples with answers:
COc1ccc(C2c3ccc4ccccc4c3Oc3ncn(CCCn4ccnc4)c(=N)c32)cc1OC (stereo unspecified): 11 µM
c1ccc(/C(=N\Nc2nc3ccccc3[nH]2)c2ccccn2)cc1: 2.99 µM
Cc1n[nH]c(=O)n1C1CC1: > 100 µM
O=C(O)CCC(NC(=O)c1ccc(Oc2nc3ccccc3nc2C(=O)O)cc1)C(=O)O (stereo unspecified): > 100 µM
O=C(Nc1ccc(I)cc1F)c1cc(Br)ccc1O: 11.3 µM

-- ask Quick one: TGI of Cn1c(-c2ccccc2)cc(-c2ccc3c(c2)OCO3)c1-c1ccsc1 ?
-- reply > 100 µM

* * *

tested on: HT29 colon; assay: NCI tumour cell line growth inhibition, 48 h; in the data active = GI50 below about 0.43 µM; inactive = the rest
Classes to choose from: 1 = active, 0 = inactive

Clc1cc(Br)ccc1-c1ccc(CNCC2CCNCC2)o1: 0
Nc1nc(Sc2ccc([N+](=O)[O-])c3nonc23)c2ncn(C3OC(CO)C(O)C3O)c2n1 (stereo not drawn): 0
CCn1nc(C2CCN(C(=O)CCO)CC2)nc1-c1cnc(N)c(-c2nnc(C(C)(C)C)o2)n1: 0
Cc1[nH]c2ccccc2c1CO: 0
c1cc(OCCN2CCCC2)ccc1CNc1ccc2nc(CCC3CCCCC3)[nH]c2c1: 0

-- ask Test call for this molecule, please: CC(C)CCN(CCC(C)C)CC(=O)Nc1ccc(S(=O)(=O)c2ccc(NC(=O)CN(CCC(C)C)CCC(C)C)cc2)cc1
-- reply 0

-- ask Test call for this molecule, please: COC(=O)c1c2c(c(C)[n+]([O-])c1C)C(=O)C(NCc1ccccc1)=CC2=O
-- reply 0

-- ask Test call for this molecule, please: CCCCCCOC(=O)CC1=C(C)/C(=C/c2[nH]c(-c3ccc[nH]3)cc2OC)N=C1C
-- reply 1

-- ask Test call for this molecule, please: CC(C)(C)c1cc(C[P+](c2ccccc2)(c2ccccc2)c2ccccc2)cc(C(C)(C)C)c1O
-- reply 1

-- ask Test call for this molecule, please: CCCN(CCC)c1ccc(/C=N/NC(=O)c2cccnc2)c(C)c1
-- reply 0

-- ask Test call for this molecule, please: COc1cccc(S(=O)(=O)NC2=NCCN2C(=S)SN2CCn3c2nsc3=S)c1
-- reply 0

* * *

tested on: MOLT-4 leukemia; test: NCI tumour cell line growth inhibition, 48 h; in the data active means GI50 below about 0.43 µM; inactive means the rest
Classes to choose from: yes (1) for active, no (0) for inactive

Take a look at these entries with their results.
CC(=O)O[C@@H]1c2c(c3c(=O)c4cccc(O)c4c(=O)c=3c2=[N+]=[N-])[C@H](OC(C)=O)[C@@H](OC(C)=O)[C@]1(C)O: yes (1)
COC(=O)[C@H](Cc1cn(C)cn1)NC(=O)[C@H](CC(C)C)NC(=O)Nc1cc(C(F)(F)F)cc(C(F)(F)F)c1: no (0)
COc1cc2c3c(n(CCCN=[N+]=[N-])c(=O)c2cc1OC)-c1ccc([N+](=O)[O-])cc1C3=O: no (0)
COc1ccc(C2c3ccc4ccccc4c3Oc3ncn(CCCn4ccnc4)c(=N)c32)cc1OC (stereo not drawn): no (0)
CCCCCSc1ccc2nc(NC(=O)OCC)sc2c1: no (0)
Cc1ncc(C(=O)Nc2ccc(CN3CCN(C)CC3)c(C(F)(F)F)c2)cc1C#Cc1cnc(N)c2ccc(C#N)cc12: yes (1)

-- ask Test call for this compound, please: CC(C)CCN(CCC(C)C)CC(=O)Nc1ccc(S(=O)(=O)c2ccc(NC(=O)CN(CCC(C)C)CCC(C)C)cc2)cc1
-- reply no (0)

-- ask Test call for this compound, please: COc1cc(CSc2nc3ccc(Cl)cc3c(=O)n2Cc2ccccc2)cc(OC)c1OC
-- reply no (0)

* * *

system: HCT-116 colon; test: NCI tumour cell line growth inhibition, 48 h
measurementKind: TGI

Examples with answers:
O=C1CCCc2ccc([N+](=O)[O-])c(O)c21: > 100 µM
CCCCCCCCCCC/C=C(/C(=O)CCCO[Si](C)(C)C(C)(C)C)C(=O)OC: > 100 µM
COc1cc2c3c(n(CCCN=[N+]=[N-])c(=O)c2cc1OC)-c1ccc([N+](=O)[O-])cc1C3=O: > 100 µM
CC(C)(C)c1cc(C[P+](c2ccccc2)(c2ccccc2)c2ccccc2)cc(C(C)(C)C)c1O: 10.2 µM

Please turn your attention to the following entry.
-- ask Quick one: TGI of Cc1ccc(C(=O)NC2CCCCC2)cc1N=NN(C)C ?
-- reply > 100 µM

* * *

test system: 786-0 renal; assay: NCI tumour cell line growth inhibition, 48 h
measurementKind: TGI

C=CC12CCCCC1CC(C(=O)OC)=C(O)C2 (centres undefined): > 100 µM
Cc1n[nH]c(=O)n1C1CC1: > 100 µM
C/C(=C/CC[C@](C)(OC1OC(CO)C(O)C(O)C1O)[C@H]1CC[C@]2(C)[C@@H]1CC[C@@H]1[C@@]3(C)CC[C@H](O)C(C)(C)[C@@H]3C[C@H](O)[C@]12CO)CO (some centres undefined): > 100 µM

Please turn your attention to the following entry.
-- ask Quick one: TGI of Nc1nc(Cl)c(N)c(NCC2(CO)CCC(OCc3ccccc3)C2)n1 (centres undefined) ?
-- reply > 100 µM
